target_of_assay: UniProt P23739
assay_info: Inhibition of Wistar rat small intestine isomaltase after 30 mins
pIC50: −log10 of the molar value.
measured_attribute: pIC50

Worked cases, pIC50 given:
>>> numeric_value("OCC(CO)N[C@H]1C[C@](O)(CO)[C@@H](O)[C@H](O)[C@H]1O")
5.28
>>> numeric_value("CC[C@@H]1N[C@@H](CO)[C@H](O)[C@H]1O")
4.96

[1] CCCC[C@@H]1N[C@@H](CO)[C@H](O)[C@H]1O
[2] CCCCCCC[C@@H]1N[C@@H](CO)[C@H](O)[C@H]1O
Would you mind telling me which has the lower recorded pIC50 between 1 and 2 ? To answer, give the label that identifies your chosen option.
2
(2: 4.80, 1: 5.33)

* * *

target_of_assay: UniProt:P23739
assay_info: Inhibition of Wistar rat small intestine sucrase after 30 mins
measured_attribute: IC50 (nM)

The following compounds have reported results that may help.
>>> numeric_value("CCCCCCCCCCC[C@@H]1N[C@@H](CO)[C@H](O)[C@H]1O")
13000
>>> numeric_value("CCCCCC[C@@H]1N[C@@H](CO)[C@H](O)[C@H]1O")
110
>>> numeric_value("CCCCCCC[C@@H]1N[C@@H](CO)[C@H](O)[C@H]1O")
240
>>> numeric_value("CCCCCCCCCC[C@@H]1N[C@@H](CO)[C@H](O)[C@H]1O")
1700

[a] CCCC[C@H]1[C@H](O)[C@@H](O)[C@H](CO)N1CCCC
[b] CCCC[C@@H]1N[C@@H](CO)[C@H](O)[C@H]1O
Quick check, higher IC50 between a and b ? Answer = label.
a
(a: 8800 nM, b: 32 nM)

* * *

target_of_assay: Sucrase-isomaltase, intestinal (Rattus norvegicus)
Sequence (P23739 1-1013 limits assumed): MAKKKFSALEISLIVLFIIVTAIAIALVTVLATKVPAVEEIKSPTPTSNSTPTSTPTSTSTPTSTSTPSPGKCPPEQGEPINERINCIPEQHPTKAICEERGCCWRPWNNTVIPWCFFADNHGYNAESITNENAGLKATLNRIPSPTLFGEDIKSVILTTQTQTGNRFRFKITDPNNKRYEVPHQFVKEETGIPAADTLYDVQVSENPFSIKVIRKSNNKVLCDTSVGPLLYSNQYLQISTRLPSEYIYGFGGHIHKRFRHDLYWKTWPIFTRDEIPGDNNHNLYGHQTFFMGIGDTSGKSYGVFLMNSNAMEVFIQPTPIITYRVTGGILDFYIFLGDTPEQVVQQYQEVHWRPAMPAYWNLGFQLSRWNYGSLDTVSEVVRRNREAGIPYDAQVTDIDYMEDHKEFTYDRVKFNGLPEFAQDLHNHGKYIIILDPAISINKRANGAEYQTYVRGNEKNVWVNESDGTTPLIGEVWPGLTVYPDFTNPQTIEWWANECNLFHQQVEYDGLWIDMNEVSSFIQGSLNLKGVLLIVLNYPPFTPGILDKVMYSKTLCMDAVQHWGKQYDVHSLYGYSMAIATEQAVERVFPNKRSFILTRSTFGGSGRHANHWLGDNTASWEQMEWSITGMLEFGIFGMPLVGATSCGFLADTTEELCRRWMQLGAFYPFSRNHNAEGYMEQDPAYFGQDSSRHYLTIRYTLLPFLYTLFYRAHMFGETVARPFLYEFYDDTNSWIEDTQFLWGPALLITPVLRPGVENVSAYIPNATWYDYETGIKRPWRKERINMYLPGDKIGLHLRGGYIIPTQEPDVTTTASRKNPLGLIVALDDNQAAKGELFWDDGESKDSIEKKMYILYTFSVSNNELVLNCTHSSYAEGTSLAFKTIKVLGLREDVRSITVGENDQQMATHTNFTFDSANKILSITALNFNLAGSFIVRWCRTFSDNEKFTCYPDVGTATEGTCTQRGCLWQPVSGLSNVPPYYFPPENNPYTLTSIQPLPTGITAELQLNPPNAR
Sequence (P23739 1014-1841 limits assumed): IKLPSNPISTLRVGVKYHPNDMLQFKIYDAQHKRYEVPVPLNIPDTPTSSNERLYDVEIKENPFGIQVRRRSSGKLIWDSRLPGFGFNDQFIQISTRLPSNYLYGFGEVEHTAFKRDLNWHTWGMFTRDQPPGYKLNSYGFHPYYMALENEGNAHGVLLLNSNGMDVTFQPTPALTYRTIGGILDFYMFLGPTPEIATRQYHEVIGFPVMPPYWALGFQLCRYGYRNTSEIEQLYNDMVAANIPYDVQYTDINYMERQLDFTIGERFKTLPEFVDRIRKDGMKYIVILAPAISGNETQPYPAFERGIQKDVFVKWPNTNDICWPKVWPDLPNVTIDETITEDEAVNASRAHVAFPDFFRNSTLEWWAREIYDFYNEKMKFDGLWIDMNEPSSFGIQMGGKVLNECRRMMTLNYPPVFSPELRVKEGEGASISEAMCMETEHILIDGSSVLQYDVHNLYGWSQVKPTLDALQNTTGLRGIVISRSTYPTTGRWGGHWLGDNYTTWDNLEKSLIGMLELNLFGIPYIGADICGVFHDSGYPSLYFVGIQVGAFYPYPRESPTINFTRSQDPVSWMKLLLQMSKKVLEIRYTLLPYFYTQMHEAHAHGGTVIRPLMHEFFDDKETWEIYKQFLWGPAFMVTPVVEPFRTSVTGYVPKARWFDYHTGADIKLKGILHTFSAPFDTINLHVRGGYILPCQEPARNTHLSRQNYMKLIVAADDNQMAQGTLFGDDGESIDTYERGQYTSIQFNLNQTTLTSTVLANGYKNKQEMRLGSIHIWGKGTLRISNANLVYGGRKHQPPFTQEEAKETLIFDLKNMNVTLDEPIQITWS
assay_info: Inhibition of Wistar rat small intestine sucrase after 30 mins
measured_attribute: IC50 (nM)

[a] CCC[C@@H]1N[C@@H](CO)[C@H](O)[C@H]1O
[b] CCCCCCCCC[C@@H]1N[C@@H](CO)[C@H](O)[C@H]1O
[c] CC[C@@H]1N[C@@H](CO)[C@H](O)[C@H]1O
Returns the items ordered by IC50, from maximum to minimum. # answer = labels listed in requested order
b, c, a

[P] OCC(CO)N[C@H]1C[C@](O)(CO)[C@@H](O)[C@H](O)[C@H]1O [VOGLIBOSE]
[Q] CCCCC[C@@H]1N[C@@H](CO)[C@H](O)[C@H]1O
Lower value of IC50 belongs to which: P or Q ? Reply briefly: the label of your chosen item.
Q
(Q: 190 nM, P: 370 nM)

* * *

target_of_assay: Sucrase-isomaltase, intestinal (Rattus norvegicus)
assay_info: Inhibition of Wistar rat small intestine isomaltase after 30 mins
pIC50: −log10 of the molar value.
measured_attribute: pIC50

Would you please look over these solved cases?
>>> numeric_value("CCCCCCCC[C@@H]1N[C@@H](CO)[C@H](O)[C@H]1O")
4.12
>>> numeric_value("CCCCCC[C@@H]1N[C@@H](CO)[C@H](O)[C@H]1O")
4.96
>>> numeric_value("CCCCCCCCCC[C@@H]1N[C@@H](CO)[C@H](O)[C@H]1O")
3.22
>>> numeric_value("CCC[C@@H]1N[C@@H](CO)[C@H](O)[C@H]1O")
4.33

[a] CCCCC[C@@H]1N[C@@H](CO)[C@H](O)[C@H]1O
[b] CCCCCCCCC[C@@H]1N[C@@H](CO)[C@H](O)[C@H]1O
Could you tell me which of these two has the smaller pIC50 figure? First: a Second: b // return label of chosen record
b
